Hi! I'm sharing some GI50 results obtained with HCT-15.
Number in µM, nothing else.

Problem: For HCT-15, give the measured GI50 of the entry Nc1cccc(Nc2nc3ccccc3nc2NS(=O)(=O)c2ccccc2)c1
Result: 25.6

Problem: For HCT-15, give GI50 of the listed compound: COc1ccc(/C=C2\N=C(SC)N(C)C2=O)cc1
Result: 64.3

Problem: Please respond with reported GI50 (system HCT-15) for CCN(CC)C(=S)/N=C(\SC(=S)N(CC)CC)c1ccccc1 .
Result: 27.7

Problem: Specify the recorded GI50 for N=C(N)C(/N=N\c1ccccc1)C(=N)N (stereo unspecified) , system: HCT-15.
Result: 49.8

Problem: Using HCT-15 as the test system, report measured GI50 of CCc1cccc(CC)c1Nc1nc(-c2ccccc2-c2ccccc2)cs1 .
Result: 94.2

Problem: Give measured GI50 for CNC(=S)N/N=C/c1cccc(C)n1 (HCT-15).
Result: 26

Problem: Please indicate recorded GI50 of COc1cc(C2c3cc4c(cc3OC(N3CCCC3)C2C)OCO4)cc(OC)c1OC (stereo unspecified) measured with HCT-15.
Result: 0.526

Problem: With HCT-15 as the test system, provide measured GI50 for this compound: CC1C(c2ccc3c(c2)OCO3)c2cc3c(cc2OC1N1CCOCC1)OCO3 (stereo unspecified)
Result: 19.3

Problem: Provide GI50, recorded with HCT-15, of COc1ccc(S(=O)(=O)Nc2ccc(-c3csc(N4C(=O)/C(=C/C=C\c5ccccc5)N=C4c4ccccc4)n3)cc2)cc1Cl
Result: 21.8

Problem: Report GI50 on HCT-15 for this entry: COc1cc(OC)cc(N(C)Cc2cnc3nc(N)nc(N)c3c2C)c1
Result: 1.27

Problem: Specify GI50 for CC(=O)O[C@@]12CO[C@@H]1CC(O)[C@@]1(C)C(=O)[C@H](O)C3=C(C)C(O)C[C@@](O)(C(OC(=O)c4ccccc4)C12)C3(C)C (stereo partly specified) , system HCT-15.
Result: 24.7

Problem: State GI50 on HCT-15. Entry: CC[n+]1c(/C=C/c2ccc(N(CCCl)CCCl)cc2)ccc2cc(Br)ccc21
Result: 14.9

Problem: Name the recorded GI50 of O=Cc1cc2c(o1)C(=O)c1ccccc1C2=O , assay system HCT-15.
Result: 0.281

Problem: Please respond with reported GI50 (system HCT-15) for Cc1ccc(-c2cc(-c3ccco3)c(C#N)c(=S)[nH]2)cc1 .
Result: 42

Problem: Name the recorded GI50 of O=C(/C=C/C(Cl)(Cl)Cl)Nc1ccc(Cl)cc1 , assay system HCT-15.
Result: 3.56

Problem: Please tell me the measured GI50 for COc1cc(CNc2nc3c(N)cc(C(F)(F)F)cc3nc2-c2ccccc2)cc(OC)c1OC ; system: HCT-15.
Result: 14.9

Problem: Provide the reported GI50 (system: HCT-15) for c1ccc(N/N=N/c2ccc(-c3nc4ccccc4[nH]3)cc2)nc1
Result: 15.8

Problem: Give GI50; test system HCT-15; compound CCN(CC)CC[n+]1ccc2c(C)c3[nH]c4ccccc4c3c(C)c2c1
Result: 16.3

Problem: Send back HCT-15 GI50 of C=C(C)C1CC2=C(O1)C(=O)c1cccc(O)c1C2=O (stereo unspecified) only.
Result: 2.05

Problem: Param request: GI50 | system HCT-15 | item CCCC(=O)Nc1cc(C(=O)N2C[C@@H]3C[C@]34C2=CC(=O)c2[nH]cc(C)c24)n(COC)c1
Result: 15.9

* * *

Record form. Attribute: GI50. Fill in for each entry.
- Test system: TK-10
- method: NCI tumour cell line growth inhibition, 48 h
Activity calls are given as the source filed them. No stated cut-off is given here; in the data, active = GI50 up to about 1.1 µM and inactive = higher.

Problem: Report GI50 for CO[C@H](/C(C)=C/C=C/C(C)=C/c1coc(C)n1)[C@H](C)[C@H]1C[C@@H](O)[C@@]2(C)O[C@H]2/C=C/[C@@H](C)[C@@H]2C[C@@H](CC(=O)O2)C[C@H]2O[C@@H]2C(=O)O1
Result: 3.21e-06 µM (active)

Problem: Read the entry CC(C)(C)CC(C)(C)NC(=S)NO and write its reported GI50.
Result: > 100 µM (inactive)

Problem: Indicate its recorded GI50; the compound in question is COc1cc(CNc2nc3c(N)cc(C(F)(F)F)cc3nc2-c2ccccc2)cc(OC)c1OC
Result: > 10 µM (inactive)

Problem: Supply measured GI50 of CN(C)CCCNc1ccc([N+](=O)[O-])c2nc3ccccc3c(N)c12 in your reply.
Result: 2.27 µM (inactive)

Problem: Give the reported GI50 for this compound. COc1c(OC)c(OC)c(C(=O)/C=C/c2ccccc2)c(OC)c1OC
Result: 12.8 µM (inactive)

Problem: State its GI50: COC(=O)C(Cc1cc(OC)c(OC)c(OC)c1)c1ccc(OC)cc1 (stereo not drawn)
Result: > 100 µM (inactive)

Problem: Quote GI50 reported for CC(C)(C)c1ccc(-n2c3nc(=O)n(-c4ccccc4C(F)(F)F)c(=O)c-3cc3ccccc32)cc1 please.
Result: 51.9 µM (inactive)

Problem: # return recorded GI50 for input COc1cc(C2C(C(=O)Nc3ccc(Cl)c(Cl)c3)=C(C)NC(C)=C2C(=O)Nc2ccc(Cl)c(Cl)c2)ccc1O
Result: 19.1 µM (inactive)

* * *

Exercise: for every item that follows, state its recorded GI50.
- Test system: SK-MEL-28
- method: NCI tumour cell line growth inhibition, 48 h
Calls of active or inactive are those of the source. Cut-off read from the data, not from the text of the source: active = GI50 up to about 1.1 µM and inactive = higher.

Problem: Output measured GI50 for this item: Clc1cc(-c2ccccc2)nc2ccccc12
Result: 57.5 µM (inactive)

Problem: Return reported GI50. Input compound: COc1ccc(-n2c3c(c4cc(O)ccc42)Cc2ccccc2C3=O)cc1
Result: 28.1 µM (inactive)

Problem: Tell me measured GI50 for COc1cc2c(cc1OC)C(=O)N(c1ccc(OCCN3CCCC3)cc1)C2 please.
Result: > 100 µM (inactive)

Problem: Read the entry O=S(=O)(O)c1ccc(/N=N\c2ccc(/N=N/c3ccc(/C=C/c4ccc(/N=[N+](\[O-])c5ccc(/C=C/c6ccc(/N=N/c7ccc(/N=N/c8ccc(S(=O)(=O)O)cc8)c8ccccc78)cc6S(=O)(=O)O)c(S(=O)(=O)O)c5)cc4S(=O)(=O)O)c(S(=O)(=O)O)c3)c3ccccc23)cc1 and write its reported GI50.
Result: > 100 µM (inactive)

Problem: // fetch GI50 given entry CC(C)c1ccc2c(c1)/C(=C1/Nc3ccccc3C1=O)C(=O)N2
Result: > 100 µM (inactive)

Problem: Kindly indicate its recorded GI50. Item: COC(=O)C1CCC(=O)N1C(c1ccccc1)c1cc(OC)c(OC)c(OC)c1 (centres undefined)
Result: 99.8 µM (inactive)

Problem: Identify GI50 associated with the compound O=c1[nH]nc(Cc2ccccc2)n1/N=C/c1cccs1
Result: > 100 µM (inactive)

Problem: Query GI50 for Cc1ccc(S(=O)(=O)c2c(N)c3nc4ccccc4n3c3nc4ccccc4nc23)cc1
Result: > 100 µM (inactive)

Problem: Item NCCc1c[nH]c2ccc(OC(=O)C(=O)O)cc12 : provide GI50
Result: > 100 µM (inactive)

* * *

- Tested on: MDA-N
- method: NCI tumour cell line growth inhibition, 48 h
Active and inactive are the calls of the source. Cut-off read from the data, not from the text of the source: active = GI50 up to about 1.1 µM and inactive = higher.
For each of the compounds below, state its GI50.

Problem: Could you please provide reported GI50 for O=C1CSc2nc3ccccc3n2/C=N\N1 ? Thanks!
Result: > 100 µM (inactive)

Problem: Give the value of GI50 reported for the following: CC1C(c2ccc3c(c2)OCO3)c2cc3c(cc2OC1N1CCOCC1)OCO3 (centres undefined)
Result: 6.28 µM (inactive)

Problem: Output measured GI50 for this item: CC(=O)OCC1OC(OCCCCCCO)C(OC(C)=O)C(OC(C)=O)C1OC(C)=O (centres undefined)
Result: > 100 µM (inactive)

Problem: Check the records and state GI50 for CC[C@]12CCCN3CCc4c(n(c5ccccc45)C(=O)C1)[C@@H]32
Result: 1.53 µM (inactive)

Problem: Tell us which GI50 value is on record for CSc1cc(Cl)c(C)cc1S(=O)(=O)NC(=O)NNc1ccc(F)c(Cl)c1
Result: > 100 µM (inactive)

Problem: Using known records, supply GI50 for CC(C)/C=N\N1C(N)=C(C#N)C(C#N)(C#N)C1C(C)C (centres undefined)
Result: 22.4 µM (inactive)

Problem: Read off the recorded GI50 for COc1cc(O)c2c(=O)cc(-c3ccc(O)cc3O)oc2c1CC=C(C)C
Result: 19.3 µM (inactive)

Problem: Tell me its GI50 given CC1=CC(C)(C)[C@H]2O[C@@]3(O)C[C@]4(C)[C@H]5C[C@@](C(C)C)(O[C@H]4c4ccoc4)O[C@H]4[C@]5(C3)O[C@@]1(O)[C@]24O as the entry.
Result: > 100 µM (inactive)

Problem: // fetch GI50 given entry COc1ccc2c(c1)O[C@@H]1C(O)Oc3cc(OC)c(OC)cc3[C@]1(O)C2=O (some centres undefined)
Result: 50.1 µM (inactive)
